# assay.info: Plasma protein binding in dog assessed as unbound fraction
# Assay type: ADME, cell-free, Canis lupus familiaris
readout: fraction unbound

smiles.notation: COC[C@H](c1cnn2cc([C@@H](NC(=O)/C(F)=C\C3CC3)C3CCC(F)(F)CC3)nc2c1)N1C[C@@H](C(F)(F)F)NC1=O
readout: fraction unbound
measured: 0.062

###

# assay.info: Toxicity in dog assessed as maximal tolerated dose administrated for 2 weeks
# Set-up: species or system Canis lupus familiaris
# condition.set: in vivo

smiles.notation: COC[C@H](c1cnn2cc([C@@H](NC(=O)/C(F)=C\C3CC3)C3CCC(F)(F)CC3)nc2c1)N1C[C@@H](C(F)(F)F)NC1=O
MTD at 336 h: 75 mg/kg

###

# assay.info: Plasma protein binding in mouse assessed as unbound fraction
# Type: ADME, cell-free

smiles.notation: COC[C@H](c1cnn2cc([C@@H](NC(=O)/C(F)=C\C3CC3)C3CCC(F)(F)CC3)nc2c1)N1C[C@@H](C(F)(F)F)NC1=O
fraction unbound: 0.048

###

# assay.info: Apparent permeability coefficient of the compound across apical to basolateral side in dog MDCK cells by high-throughput analysis
# Assay type: ADME, cell-based, Canis lupus familiaris
Reported Papp A→B values are given for each entry in this list.

smiles.notation: C/C=C(/F)C(=O)N[C@H](c1cn2ncc([C@@H](COC)N3C[C@@H](C(F)(F)F)NC3=O)cc2n1)C1CCC(F)(F)CC1
endpoint.unit: ×10⁻⁶ cm/s
Papp A→B: 17

smiles.notation: C=C(F)C(=O)N[C@H](c1cn2ncc([C@@H](COC)N3C[C@@H](C(F)(F)F)NC3=O)cc2n1)C1CCC(F)(F)CC1
endpoint.unit: ×10⁻⁶ cm/s
Papp A→B: 6.5

smiles.notation: COC[C@H](c1cnn2cc([C@@H](NC(=O)C(F)=C(C)C)C3CCC(F)(F)CC3)nc2c1)N1C[C@@H](C(F)(F)F)NC1=O
endpoint.unit: ×10⁻⁶ cm/s
Papp A→B: 25

smiles.notation: COC[C@H](c1cnn2cc([C@@H](Nc3nc(C(C)(F)F)no3)C3CCC(F)(F)CC3)nc2c1)N1C[C@@H](C(F)(F)F)NC1=O
endpoint.unit: ×10⁻⁶ cm/s
Papp A→B: 9.7

###

# assay.info: Lipophilicity, logD of compound at pH 7.4
# Type: physicochemical
# condition.set: buffer
Reported logD values follow for various molecules
readout: logD

molecule: COC[C@H](c1cnn2cc([C@@H](NC(=O)/C(F)=C3\CCOC3)C3CCC(F)(F)CC3)nc2c1)N1C[C@@H](C(F)(F)F)NC1=O
qualifier.sign: =
measured: 2.6
//
molecule: COC[C@H](c1cnn2cc([C@@H](Nc3cc(C)on3)C3CCC(F)(F)CC3)nc2c1)N1C[C@@H](C(F)(F)F)NC1=O
qualifier.sign: =
measured: 2.9
//
molecule: COC[C@H](c1cnn2cc([C@@H](NC(=O)/C(F)=C\C3CC3)C3CCC(F)(F)CC3)nc2c1)N1C[C@@H](C(F)(F)F)NC1=O
qualifier.sign: =
measured: 3.8
//
molecule: COC[C@H](c1cnn2cc([C@@H](NC(=O)c3nonc3C)C3CCC(F)(F)CC3)nc2c1)N1C[C@@H](C(F)(F)F)NC1=O [LY-3509754]
qualifier.sign: =
measured: 3.1
//
molecule: CC(F)(F)c1nnc(N[C@H](c2cn3ncc([C@@H](C4CC4)N4C[C@@H](C(F)(F)F)NC4=O)cc3n2)C2CCC(F)(F)CC2)o1
qualifier.sign: =
measured: 3.9
//
molecule: COC[C@H](c1cnn2cc([C@@H](NC(=O)C(C)(F)F)C3CCC(F)(F)CC3)nc2c1)N1C[C@@H](C(F)(F)F)NC1=O
qualifier.sign: =
measured: 2.5
//
molecule: COC[C@H](c1cnn2cc([C@@H](Nc3nnc(C)s3)C3CCC(F)(F)CC3)nc2c1)N1C[C@@H](C(F)(F)F)NC1=O
qualifier.sign: =
measured: 2.5
//
molecule: COC[C@H](c1cnn2cc([C@@H](NC(=O)C(F)=C(C)C)C3CCC(F)(F)CC3)nc2c1)N1C[C@@H](C(F)(F)F)NC1=O
qualifier.sign: =
measured: 3.2
//
molecule: COC[C@H](c1cnn2cc([C@@H](Nc3cc(OC)ncn3)C3CCC(F)(F)CC3)nc2c1)N1C[C@@H](C(F)(F)F)NC1=O
qualifier.sign: =
measured: 3.2
//
molecule: COC[C@H](c1cnn2cc([C@@H](NC(=O)/C(F)=C\C3(F)CC3)C3CCC(F)(F)CC3)nc2c1)N1C[C@@H](C(F)(F)F)NC1=O
qualifier.sign: =
measured: 2.8
//
molecule: C=C(F)C(=O)N[C@H](c1cn2ncc([C@@H](COC)N3C[C@@H](C(F)(F)F)NC3=O)cc2n1)C1CCC(F)(F)CC1
qualifier.sign: =
measured: 2.5
//
molecule: COC[C@H](c1cnn2cc([C@@H](Nc3noc(C(C)(F)F)n3)C3CCC(F)(F)CC3)nc2c1)N1C[C@@H](C(F)(F)F)NC1=O
qualifier.sign: =
measured: 3.7
//
molecule: COC[C@H](c1cnn2cc([C@@H](Nc3nnc(C(F)(F)F)o3)C3CCC(F)(F)CC3)nc2c1)N1C[C@@H](C(F)(F)F)NC1=O
qualifier.sign: =
measured: 3.4
//
molecule: COC[C@H](c1cnn2cc([C@@H](Nc3nnc(C(C)(F)F)o3)C3CCC(F)(F)CC3)nc2c1)N1C[C@@H](C(F)(F)F)NC1=O
qualifier.sign: =
measured: 3
//
molecule: COC[C@H](c1cnn2cc([C@@H](Nc3nnc(C)n3C)C3CCC(F)(F)CC3)nc2c1)N1C[C@@H](C(F)(F)F)NC1=O
qualifier.sign: =
measured: 1.5
//
molecule: C/C=C(\F)C(=O)N[C@H](c1cn2ncc([C@@H](COC)N3C[C@@H](C(F)(F)F)NC3=O)cc2n1)C1CCC(F)(F)CC1
qualifier.sign: =
measured: 3
//
molecule: COC[C@H](c1cnn2cc([C@@H](Nc3nnc(C4CC4)o3)C3CCC(F)(F)CC3)nc2c1)N1C[C@@H](C(F)(F)F)NC1=O
qualifier.sign: =
measured: 2.7
//
molecule: COC[C@H](c1cnn2cc([C@@H](Nc3ncc(C4CC4)o3)C3CCC(F)(F)CC3)nc2c1)N1C[C@@H](C(F)(F)F)NC1=O
qualifier.sign: >
measured: 4.7
//
molecule: C/C=C(/F)C(=O)N[C@H](c1cn2ncc([C@@H](COC)N3C[C@@H](C(F)(F)F)NC3=O)cc2n1)C1CCC(F)(F)CC1
qualifier.sign: =
measured: 3
//
molecule: COC[C@H](c1cnn2cc([C@@H](Nc3nnc(C)o3)C3CCC(F)(F)CC3)nc2c1)N1C[C@@H](C(F)(F)F)NC1=O
qualifier.sign: =
measured: 1.9
//
molecule: COC[C@H](c1cnn2cc([C@@H](Nc3nc(C(C)(F)F)no3)C3CCC(F)(F)CC3)nc2c1)N1C[C@@H](C(F)(F)F)NC1=O
qualifier.sign: =
measured: 3.5

###

# assay.info: Inhibition of biotinylated human IL-17A/AF647-labeled human IL-17RA protein-protein interaction preincubated for 30 mins with compound followed by addition of AF647-labeled human IL-17RA incubated for 90 min by TR-FRET assay
pIC50: −log10 of the molar value.
readout: pIC50

smiles.notation: CC(F)(F)c1nnc(N[C@H](c2cn3ncc([C@@H](C4CC4)N4C[C@@H](C(F)(F)F)NC4=O)cc3n2)C2CCC(F)(F)CC2)o1
readout: pIC50
measured: 7.68
--
smiles.notation: COC[C@H](c1cnn2cc([C@@H](Nc3nnc(C(F)(F)F)o3)C3CCC(F)(F)CC3)nc2c1)N1C[C@@H](C(F)(F)F)NC1=O
readout: pIC50
measured: 7.60
--
smiles.notation: COC[C@H](c1cnn2cc([C@@H](Nc3cc(C)on3)C3CCC(F)(F)CC3)nc2c1)N1C[C@@H](C(F)(F)F)NC1=O
readout: pIC50
measured: 7.21
--
smiles.notation: COC[C@H](c1cnn2cc([C@@H](Nc3noc(C(C)(F)F)n3)C3CCC(F)(F)CC3)nc2c1)N1C[C@@H](C(F)(F)F)NC1=O
readout: pIC50
measured: 7.52

###

# assay.info: Inhibition of biotinylated human IL-17A/AF647-labeled human IL-17RA protein-protein interaction preincubated for 30 mins with compound followed by addition of AF647-labeled human IL-17RA incubated for 90 min by TR-FRET assay
pIC50: −log10 of the molar value.
The reader will find reported pIC50 values listed item by item below.

smiles.notation: COC[C@H](c1cnn2cc([C@@H](Nc3nnc(C)n3C)C3CCC(F)(F)CC3)nc2c1)N1C[C@@H](C(F)(F)F)NC1=O
pIC50: 5.74
--
smiles.notation: COC[C@H](c1cnn2cc([C@@H](NC(=O)C(C)(F)F)C3CCC(F)(F)CC3)nc2c1)N1C[C@@H](C(F)(F)F)NC1=O
pIC50: 7.07
--
smiles.notation: COC[C@H](c1cnn2cc([C@@H](NC(=O)/C(F)=C\C3(F)CC3)C3CCC(F)(F)CC3)nc2c1)N1C[C@@H](C(F)(F)F)NC1=O
pIC50: 7.80
--
smiles.notation: COC[C@H](c1cnn2cc([C@@H](NC(=O)/C(F)=C3\CCOC3)C3CCC(F)(F)CC3)nc2c1)N1C[C@@H](C(F)(F)F)NC1=O
pIC50: 6.99
